molecular target: T1, HLA-A*01:01 (human); experiment: UV-ligand exchange, anti-b2m ELISA; exchange yield grade (+ >10%, ++ >20%, +++ >50, ++++ >75%)
T1 construct: Peptide-receptive MHC monomer made by UV cleavage of a UV-sensitive peptide
Assign peptide exchange yield to each entry below.

Given the binder `ITDFNNIRY` , what is its reported peptide exchange yield? 50 to 75%

Entry to check: `TASEDVFQY` 10 to 20%

Entry to check: `YTHHLFIFY` 10 to 20%

Entry to check: `ASSTDSASYY` 50 to 75%

Entry to check: `LMKEVMEHY` 20 to 50%

Entry to check: `VSNGKWLLY` 50 to 75%

Entry to check: `FITAQNHGY` 20 to 50%

Entry to check: `GSTMVEHNY` 20 to 50%

Entry to check: `YAAYIIHAY` 50 to 75%

Entry to check: `ITAQNHGY` 20 to 50%
